All values here come from ChEMBL document CHEMBL3804761.

- testSummary: Growth inhibition of human PC3 cells incubated for 48 hrs by sulforhodamine B assay
- Type: functional
- testParameters: PC-3, 48 h, read-out: pLC50 (the source's name) (converted)
measuredEndpoint: CC50

Recorded results for 3 compounds are shown here.
{"columns": ["chemicalSmiles", "CC50"],
 "data": [
  ["CC(C)[C@@]12C[C@@H](NC(=O)CO)[C@@](C)(O1)[C@@H]1CC[C@@H](C)[C@H]1[C@@H]2OC(=O)/C=C/c1ccccc1", "> 50.1 µM"],
  ["CC(C)[C@@]12C[C@@H](NC(=O)CO)[C@@](C)(O1)[C@@H]1CC[C@@H](C)[C@H]1[C@@H]2OC(=O)/C=C/C1CCCCC1", "> 44.7 µM"],
  ["C/C(=C\\C(=O)O[C@H]1[C@@H]2[C@H](C)CC[C@H]2[C@]2(C)O[C@@]1(C(C)C)C[C@H]2NC(=O)CO)c1ccccc1", "> 100 µM"]
]}

Shift focus to the following entry.
Q: Requested read-out: CC50. Entry: CC(C)[C@@]12C[C@@H](NC(=O)CO)[C@@](C)(O1)[C@@H]1CC[C@@H](C)[C@H]1[C@@H]2OC(=O)c1ccc2ccccc2c1
A: 52.5 µM

###

- testSummary: Growth inhibition of human IGROV1 cells incubated for 48 hrs by sulforhodamine B assay
- Assay type: functional
- testParameters: IGROV-1, 48 h, read-out: pLC50 (the source's name) (converted)
measuredEndpoint: CC50

{"columns": ["chemicalSmiles", "CC50"],
 "data": [
  ["CC(C)[C@@]12C[C@@H](NC(=O)CO)[C@@](C)(O1)[C@@H]1CC[C@@H](C)[C@H]1[C@@H]2OC(=O)/C=C/C1CCCCC1", "> 44.7 µM"],
  ["CC(C)[C@@]12C[C@@H](NC(=O)CO)[C@@](C)(O1)[C@@H]1CC[C@@H](C)[C@H]1[C@@H]2OC(=O)/C=C/c1ccccc1", "> 50.1 µM"],
  ["CC(C)[C@@]12C[C@@H](NC(=O)CO)[C@@](C)(O1)[C@@H]1CC[C@@H](C)[C@H]1[C@@H]2OC(=O)c1ccc2ccccc2c1", "61.7 µM"]
]}

Shift focus to the following entry.
Q: Requested read-out: CC50. Entry: C/C(=C\C(=O)O[C@H]1[C@@H]2[C@H](C)CC[C@H]2[C@]2(C)O[C@@]1(C(C)C)C[C@H]2NC(=O)CO)c1ccccc1
A: > 100 µM

###

- testSummary: Growth inhibition of human HCT15 cells incubated for 48 hrs by sulforhodamine B assay
- Format: functional
- testParameters: HCT-15, 48 h, read-out: pTGI (converted)
measuredEndpoint: TGI

{"columns": ["chemicalSmiles", "TGI"],
 "data": [
  ["CC(C)[C@@]12C[C@@H](NC(=O)CO)[C@@](C)(O1)[C@@H]1CC[C@@H](C)[C@H]1[C@@H]2OC(=O)c1ccc2ccccc2c1", "31.6 µM"],
  ["C/C(=C\\C(=O)O[C@H]1[C@@H]2[C@H](C)CC[C@H]2[C@]2(C)O[C@@]1(C(C)C)C[C@H]2NC(=O)CO)c1ccccc1", "> 100 µM"],
  ["CC(C)[C@@]12C[C@@H](NC(=O)CO)[C@@](C)(O1)[C@@H]1CC[C@@H](C)[C@H]1[C@@H]2OC(=O)/C=C/c1ccccc1", "> 50.1 µM"]
]}

Q: Requested read-out: TGI. Entry: CC(C)[C@@]12C[C@@H](NC(=O)CO)[C@@](C)(O1)[C@@H]1CC[C@@H](C)[C@H]1[C@@H]2OC(=O)/C=C/C1CCCCC1
A: > 44.7 µM

###

Below, each entry is listed alongside its reported CC50.
- System: MDA-MB-468
- testSummary: Growth inhibition of human MDA-MB-468 cells incubated for 48 hrs by sulforhodamine B assay
- Assay type: functional
- testParameters: MDA-MB-468, 48 h, read-out: pLC50 (the source's name) (converted)

{"columns": ["chemicalSmiles", "CC50"],
 "data": [
  ["CC(C)[C@@]12C[C@@H](NC(=O)CO)[C@@](C)(O1)[C@@H]1CC[C@@H](C)[C@H]1[C@@H]2OC(=O)c1ccc2ccccc2c1", "57.5 µM"]
]}

Q: Requested read-out: CC50. Entry: CC(C)[C@@]12C[C@@H](NC(=O)CO)[C@@](C)(O1)[C@@H]1CC[C@@H](C)[C@H]1[C@@H]2OC(=O)/C=C/C1CCCCC1
A: > 44.7 µM

Q: Requested read-out: CC50. Entry: CC(C)[C@@]12C[C@@H](NC(=O)CO)[C@@](C)(O1)[C@@H]1CC[C@@H](C)[C@H]1[C@@H]2OC(=O)/C=C/c1ccccc1
A: > 50.1 µM

Q: Requested read-out: CC50. Entry: C/C(=C\C(=O)O[C@H]1[C@@H]2[C@H](C)CC[C@H]2[C@]2(C)O[C@@]1(C(C)C)C[C@H]2NC(=O)CO)c1ccccc1
A: > 100 µM

###

- testSummary: Growth inhibition of human SF539 cells incubated for 48 hrs by sulforhodamine B assay
- Format: functional
- testParameters: SF-539, 48 h
measuredEndpoint: GI50 (µM)
Write the number in µM without appending the unit.

Recorded results for 2 compounds are shown here.
{"columns": ["chemicalSmiles", "quantityUnit", "GI50"],
 "data": [
  ["CC(C)[C@@]12C[C@@H](NC(=O)CO)[C@@](C)(O1)[C@@H]1CC[C@@H](C)[C@H]1[C@@H]2OC(=O)c1ccc2ccccc2c1", "µM", 15.5],
  ["C/C(=C\\C(=O)O[C@H]1[C@@H]2[C@H](C)CC[C@H]2[C@]2(C)O[C@@]1(C(C)C)C[C@H]2NC(=O)CO)c1ccccc1", "µM", 49]
]}

Shift focus to the following entry.
Q: Requested read-out: GI50. Entry: CC(C)[C@@]12C[C@@H](NC(=O)CO)[C@@](C)(O1)[C@@H]1CC[C@@H](C)[C@H]1[C@@H]2OC(=O)/C=C/c1ccccc1
A: 42.7

###

Below, each entry is listed alongside its reported GI50.
- Test system: NCI/ADR-RES
- testSummary: Growth inhibition of human NCI/ADR-RES cells incubated for 48 hrs by sulforhodamine B assay
- Format: functional
Write the number in µM without appending the unit.

{"columns": ["chemicalSmiles", "testTarget", "measuredEndpoint", "quantityUnit", "number"],
 "data": [
  ["CC(C)[C@@]12C[C@@H](NC(=O)CO)[C@@](C)(O1)[C@@H]1CC[C@@H](C)[C@H]1[C@@H]2OC(=O)/C=C/c1ccccc1", "NCI/ADR-RES", "GI50", "µM", 3.47],
  ["CC(C)[C@@]12C[C@@H](NC(=O)CO)[C@@](C)(O1)[C@@H]1CC[C@@H](C)[C@H]1[C@@H]2OC(=O)c1ccc2ccccc2c1", "NCI/ADR-RES", "GI50", "µM", 11],
  ["CC(C)[C@@]12C[C@@H](NC(=O)CO)[C@@](C)(O1)[C@@H]1CC[C@@H](C)[C@H]1[C@@H]2OC(=O)/C=C/C1CCCCC1", "NCI/ADR-RES", "GI50", "µM", 40.7]
]}

Shift focus to the following entry.
Q: Requested read-out: GI50. Entry: C/C(=C\C(=O)O[C@H]1[C@@H]2[C@H](C)CC[C@H]2[C@]2(C)O[C@@]1(C(C)C)C[C@H]2NC(=O)CO)c1ccccc1
A: 7.94

###

- System: M14
- testSummary: Growth inhibition of human M14 cells assessed as cell growth at 10 uM incubated for 48 hrs by sulforhodamine B assay relative to control
- Format: functional
- testParameters: M14, 48 h, read-out: Activity
measuredEndpoint: growth at 10 µM (%)
Write the number in % without appending the unit.

Recorded results for 4 molecules are shown here.
{"columns": ["chemicalSmiles", "testTarget", "growth at 10 µM [%]"],
 "data": [
  ["CC(C)[C@@]12C[C@@H](NC(=O)CO)[C@@](C)(O1)[C@@H]1CC[C@@H](C)[C@H]1[C@@H]2OC(=O)/C=C/c1ccccc1", "M14", 103],
  ["CC(C)[C@@]12C[C@@H](NC(=O)CO)[C@@](C)(O1)[C@@H]1CC[C@@H](C)[C@H]1[C@@H]2OC(=O)/C=C/C1CCCCC1", "M14", 104],
  ["C/C(=C\\C(=O)O[C@H]1[C@@H]2[C@H](C)CC[C@H]2[C@]2(C)O[C@@]1(C(C)C)C[C@H]2NC(=O)CO)c1ccccc1", "M14", 100],
  ["CC(C)[C@@]12C[C@@H](NC(=O)CO)[C@@](C)(O1)[C@@H]1CC[C@@H](C)[C@H]1[C@@H]2OC(=O)c1ccc2ccccc2c1", "M14", 95.2]
]}

Shift focus to the following entry.
Q: Requested read-out: growth at 10 µM. Entry: CC(C)[C@@]12C[C@@H](NC(=O)CF)[C@@](C)(O1)[C@@H]1CC[C@@H](C)[C@H]1[C@@H]2OC(=O)/C=C/c1ccccc1
A: 96.7
